All values here come from paper PMC10739250.

# assay-name: physchem
# stated-conditions: thermodynamic from solid
measurement-name: solubility thermodynamic (mM)
# output: bare number, implied unit mM

Fill in solubility thermodynamic for record CC(C)(C)[C@H](NC(=O)C(F)(F)F)C(=O)N1C[C@H]2[C@@H]([C@H]1C(=O)N[C@H](C#N)C[C@@H]1CCNC1=O)C2(C)C [Compound 1, nirmatrelvir]
4.79

---

# assay-name: in vitro
# stated-conditions: human, hepatocytes
measurement-name: half-life

Fill in half-life for record `CC(C)(C)[C@H](NC(=O)C(F)(F)F)C(=O)N1C[C@H]2[C@@H]([C@H]1C(=O)N[C@H](C#N)C[C@@H]1CCNC1=O)C2(C)C`
> 7.23 h
